Target: Oxytocin receptor (Homo sapiens, UniProt P30559)
Sequence (P30559 whole entry): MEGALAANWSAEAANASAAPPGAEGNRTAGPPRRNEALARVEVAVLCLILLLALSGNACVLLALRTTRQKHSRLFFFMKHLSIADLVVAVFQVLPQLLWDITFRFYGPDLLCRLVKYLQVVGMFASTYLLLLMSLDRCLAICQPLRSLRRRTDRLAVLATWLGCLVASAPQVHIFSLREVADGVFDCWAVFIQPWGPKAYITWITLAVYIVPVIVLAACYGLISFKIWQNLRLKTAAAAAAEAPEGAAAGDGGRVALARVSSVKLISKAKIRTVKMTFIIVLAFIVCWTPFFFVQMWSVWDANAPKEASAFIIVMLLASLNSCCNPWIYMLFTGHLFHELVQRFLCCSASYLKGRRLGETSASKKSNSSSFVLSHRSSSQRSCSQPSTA
Assay: Agonist activity at human OT receptor expressed in CHO-K1 cells by luciferase reporter gene assay
Format: functional, cell-based
Conditions: read-out: EC50
Bridge positions count the residues as written; N and C are the ends. Square brackets hold non-standard residues; d marks the D form. Peptide text beside a SMILES is read from it. 3Thi = N[C@@H](Cc1ccsc1)C(=O)O; Dab = NCC[C@H](N)C(=O)O
Readout label: EC50 (nM)

1. CC[C@H](C)[C@@H]1NC(=O)[C@H](Cc2ccsc2)NC(=O)[C@@H](N)CSSC[C@@H](C(=O)N2CCC[C@H]2C(=O)N[C@@H](CCN)C(=O)NCC(N)=O)NC(=O)[C@H](CC(N)=O)NC(=O)[C@H](CCC(N)=O)NC1=O (H-C[3Thi]IQNCP[Dab]G-NH2; disulfide 1-6)
2. NCCC[C@H](NC(=O)[C@@H]1CCCN1C(=O)[C@@H]1CSSC[C@H](N)C(=O)N[C@@H](Cc2ccc(O)cc2)C(=O)N[C@@H](Cc2ccccc2)C(=O)N[C@@H](CCC(N)=O)C(=O)N[C@@H](CC(N)=O)C(=O)N1)C(=O)NCC(N)=O
Looking only at measured EC50, which entry is lower, 1 or 2 ? State your choice using its label. 1
(1: 30 nM, 2: 71 nM)

Recorded values, source ChEMBL document CHEMBL1817572.
